# TEST SYSTEM: cynomolgus Siglec-2/CD22 (Macaca fascicularis, UniProt A0A2K5WCZ6)
# Sequence (A0A2K5WCZ6 entry or part of it): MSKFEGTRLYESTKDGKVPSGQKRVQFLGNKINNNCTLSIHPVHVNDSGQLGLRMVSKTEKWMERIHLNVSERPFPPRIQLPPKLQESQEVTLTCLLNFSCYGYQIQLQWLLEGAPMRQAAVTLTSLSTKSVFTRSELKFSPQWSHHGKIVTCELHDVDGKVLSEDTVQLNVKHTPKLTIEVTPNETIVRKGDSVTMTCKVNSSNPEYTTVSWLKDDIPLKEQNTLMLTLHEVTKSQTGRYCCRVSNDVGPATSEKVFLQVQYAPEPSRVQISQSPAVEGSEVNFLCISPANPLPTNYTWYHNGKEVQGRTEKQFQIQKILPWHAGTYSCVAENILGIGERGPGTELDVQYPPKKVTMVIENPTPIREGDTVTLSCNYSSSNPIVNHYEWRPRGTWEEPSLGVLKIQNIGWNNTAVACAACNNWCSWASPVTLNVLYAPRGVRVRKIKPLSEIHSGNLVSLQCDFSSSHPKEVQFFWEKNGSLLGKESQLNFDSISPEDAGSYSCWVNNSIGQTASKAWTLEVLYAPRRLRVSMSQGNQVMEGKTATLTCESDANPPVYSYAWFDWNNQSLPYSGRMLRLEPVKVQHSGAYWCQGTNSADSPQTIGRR
# EXPERIMENT NOTES: biochemical
# REPORTED CONDITIONS: SPR, steady-state analysis; read-out: Affinity cyno CD22
pKd: −log10 of the molar value.
MEASUREMENT LABEL: pKd

Input line: Given the entry `C#CCCCCCCS[C@]1(C(=O)O)C[C@H](O)[C@@H](NC(=O)CO)[C@H]([C@H](O)[C@H](O)CNC(=O)Cc2ccc(-c3ccc(O)cc3)cc2)O1` , report its measured pKd.
Output line: > 6.00

Input line: Given the entry `C#CCOCCOCCO[C@]1(C(=O)O)C[C@H](O)[C@@H](NC(=O)NC)[C@H]([C@H](O)[C@H](O)CNC(=O)Cc2ccc(-c3ccc(O)cc3)cc2)O1` , report its measured pKd.
Output line: 5.00 to 6.00

Input line: Can you look up the measured pKd of `C#CCCOc1ccc(CO[C@]2(C(=O)O)C[C@H](O)[C@@H](N)[C@H]([C@H](O)[C@H](O)CNC(=O)Cc3ccc(-c4ccc(O)cc4)cc3)O2)cc1` for me?
Output line: 5.00 to 6.00

Input line: pKd for `C#CCCCCCCO[C@]1(C(=O)O)C[C@H](O)[C@@H](NC(=O)CO)[C@H]([C@H](O)[C@H](O)CNC(=O)c2cccc(Oc3ccccc3)c2)O1` ?
Output line: > 6.00

Input line: // query pKd value for entry `C#CCCOc1ccc(CS[C@]2(C(=O)O)C[C@H](O)[C@@H](NC(=O)CO)[C@H]([C@H](O)[C@H](O)CNC(=O)Cc3cccc(O)c3)O2)cc1`
Output line: 5.00 to 6.00

Taken from patent US20250064941A1.
